Values compiled from patent US11440898B2.

# ASSAY SYSTEM: mutated beta-galactosidase (p.R60H canine GLB1) in GM11473 fibroblasts (Canis lupus familiaris, UniProt Q9TRY9, R60H)
# Construct: host or cells: GM11473 canine GM1 gangliosidosis fibroblasts
# Sequence (Q9TRY9 30-668 R60H): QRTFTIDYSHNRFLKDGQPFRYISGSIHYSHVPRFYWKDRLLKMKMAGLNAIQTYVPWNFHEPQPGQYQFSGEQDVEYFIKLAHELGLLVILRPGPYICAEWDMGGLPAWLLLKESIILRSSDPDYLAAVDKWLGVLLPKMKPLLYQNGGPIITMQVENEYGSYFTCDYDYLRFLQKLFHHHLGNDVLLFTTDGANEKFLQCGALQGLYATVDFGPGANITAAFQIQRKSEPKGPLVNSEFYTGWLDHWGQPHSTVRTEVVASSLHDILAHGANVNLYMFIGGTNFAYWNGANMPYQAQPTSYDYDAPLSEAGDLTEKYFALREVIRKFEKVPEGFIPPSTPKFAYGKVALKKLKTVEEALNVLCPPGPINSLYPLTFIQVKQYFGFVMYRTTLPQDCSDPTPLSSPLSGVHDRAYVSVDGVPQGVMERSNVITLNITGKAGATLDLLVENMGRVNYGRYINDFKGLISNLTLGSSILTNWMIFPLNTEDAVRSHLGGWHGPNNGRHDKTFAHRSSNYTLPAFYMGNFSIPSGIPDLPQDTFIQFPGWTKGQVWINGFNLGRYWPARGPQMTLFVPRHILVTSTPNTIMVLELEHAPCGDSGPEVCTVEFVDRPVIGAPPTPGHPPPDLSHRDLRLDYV
# METHOD: Enhancement of β-galactosidase activity measured in GM1 fibroblasts (GM11473), 4-MU-β-D-galactopyranoside substrate
# Assay type: cell-based
# Design: key: Increase in comparison with non-treated of >2.5 fold is shown as A; Increase in comparison with non-treated of >1.7-2.5 fold is shown as B; Increase in comparison with non-treated of 1.2-1.7 fold is shown as C; D means that no increase compared with non-treated cells was detected in this method
# EXPERIMENTAL CONTEXT: increase in β-galactosidase enzyme activity vs non-treated cells, concentrations between 6 and 50 μM, 4 days incubation

# MOLECULE, Activity in GM11473 fibroblasts
rows = [
    ("O=S(=O)(NCc1ccc2nsnc2c1)c1cccc(Nc2nccc3ccc(Cl)cc23)c1 [Example 74]", "D"),
    ("O=C(NCc1ccccc1)c1cccc(Nc2nccc3ccc(Cl)cc23)c1 [Example 4]", "D"),
]

----------
# ASSAY SYSTEM: mutated beta-galactosidase (p.R60H canine GLB1) in GM11473 fibroblasts (Canis lupus familiaris, UniProt Q9TRY9, R60H)
# Construct: host or cells: GM11473 canine GM1 gangliosidosis fibroblasts
# METHOD: Enhancement of β-galactosidase activity measured in GM1 fibroblasts (GM11473), 4-MU-β-D-galactopyranoside substrate
# Format: cell-based
# Set-up: key: Increase in comparison with non-treated of >2.5 fold is shown as A; Increase in comparison with non-treated of >1.7-2.5 fold is shown as B; Increase in comparison with non-treated of 1.2-1.7 fold is shown as C; D means that no increase compared with non-treated cells was detected in this method
# EXPERIMENTAL CONTEXT: increase in β-galactosidase enzyme activity vs non-treated cells, concentrations between 6 and 50 μM, 4 days incubation
MEASUREMENT LABEL: Activity in GM11473 fibroblasts

# MOLECULE, RESULT
measured = [
    ("COc1ccc(CNC(=O)c2cc(Nc3nccc4ccc(Cl)cc34)ccn2)cc1", "D"),
    ("O=C(NCCc1ccc2c(c1)OCCO2)c1ccc(Nc2nccc3ccc(Cl)cc23)cn1", "D"),
    ("O=S(=O)(NCC(c1ccccn1)N1CCOCC1)c1ccc(Nc2nccc3ccc(Cl)cc23)cc1 (centres unmarked)", "D"),
]

----------
# ASSAY SYSTEM: mutated beta-galactosidase (p.R60H canine GLB1) in GM11473 fibroblasts (Canis lupus familiaris, UniProt Q9TRY9, R60H)
# Construct: host or cells: GM11473 canine GM1 gangliosidosis fibroblasts
# METHOD: Enhancement of β-galactosidase activity measured in GM1 fibroblasts (GM11473), 4-MU-β-D-galactopyranoside substrate
# Assay type: cell-based
# Design: key: Increase in comparison with non-treated of >2.5 fold is shown as A; Increase in comparison with non-treated of >1.7-2.5 fold is shown as B; Increase in comparison with non-treated of 1.2-1.7 fold is shown as C; D means that no increase compared with non-treated cells was detected in this method
# EXPERIMENTAL CONTEXT: increase in β-galactosidase enzyme activity vs non-treated cells, concentrations between 6 and 50 μM, 4 days incubation

# MOL SMILES, Activity in GM11473 fibroblasts
measured = [
    ("Cn1nnc2c(NS(=O)(=O)c3ccc(Nc4nccc5ccc(Cl)cc45)cc3)cccc21", "D"),
    ("COc1ccc(CNC(=O)c2ccc(Nc3nccc4ccc(Cl)cc34)nc2)cc1", "D"),
]
